Where do these numbers come from? They come from patent US20200024330A1.

- TARGET OR SYSTEM: Env of all HIV-1 pseudoviruses of the cross-clade 162-pseudovirus panel (n = 162)
- ASSAY: cell-based or functional assay
# reported Median IC50 against viruses neutralized with an IC50 <50 µg/ml; entries follow
Record the value in µg/mL, omitting the unit from your answer.

>>> readout_number("PGT-135 (antibody, V domains shown) VH: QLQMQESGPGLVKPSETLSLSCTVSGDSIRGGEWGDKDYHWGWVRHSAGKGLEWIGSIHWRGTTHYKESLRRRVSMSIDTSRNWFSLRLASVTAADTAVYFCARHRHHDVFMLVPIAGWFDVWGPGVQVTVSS VL: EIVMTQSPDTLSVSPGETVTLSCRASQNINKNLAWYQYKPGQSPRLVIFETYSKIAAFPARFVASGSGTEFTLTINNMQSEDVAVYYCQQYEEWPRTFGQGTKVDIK")
0.17
>>> readout_number("PGT-125 (antibody, V domains shown) VH: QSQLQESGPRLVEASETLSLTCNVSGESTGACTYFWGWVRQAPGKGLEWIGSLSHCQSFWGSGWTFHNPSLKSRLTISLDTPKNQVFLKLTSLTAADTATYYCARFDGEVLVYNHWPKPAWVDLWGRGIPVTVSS VL: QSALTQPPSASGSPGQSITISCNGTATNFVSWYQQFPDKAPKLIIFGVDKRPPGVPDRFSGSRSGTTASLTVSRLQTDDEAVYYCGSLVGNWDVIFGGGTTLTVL")
0.04
>>> readout_number("PGT-130 (antibody, V domains shown) VH: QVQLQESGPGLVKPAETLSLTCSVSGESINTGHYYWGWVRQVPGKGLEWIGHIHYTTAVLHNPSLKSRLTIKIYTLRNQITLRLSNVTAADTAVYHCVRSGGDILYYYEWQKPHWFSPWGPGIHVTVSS VL: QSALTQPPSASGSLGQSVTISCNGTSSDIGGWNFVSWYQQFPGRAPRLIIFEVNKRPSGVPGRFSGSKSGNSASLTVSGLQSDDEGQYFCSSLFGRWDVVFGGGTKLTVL")
0.18

Moving on to another binder below.
Just so you know, measured Median IC50 against viruses neutralized with an IC50 <50 µg/ml for PGT-126 (antibody, V domains shown) VH: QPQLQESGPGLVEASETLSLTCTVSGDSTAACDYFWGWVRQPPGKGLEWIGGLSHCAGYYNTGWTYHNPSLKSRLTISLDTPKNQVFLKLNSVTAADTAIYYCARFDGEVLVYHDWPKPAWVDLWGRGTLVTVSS VL: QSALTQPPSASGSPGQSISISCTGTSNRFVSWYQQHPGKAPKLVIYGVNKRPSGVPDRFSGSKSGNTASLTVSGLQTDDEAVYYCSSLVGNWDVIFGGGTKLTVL came out at 0.04
